# Test system: SK-MEL-28
# assayProtocol: NCI tumour cell line growth inhibition, 48 h
Active and inactive are the calls of the source. Rule as the data show it: active = GI50 up to about 1.1 µM and inactive = higher.

compound | GI50
O=C1c2ccccc2CC12Cc1cc3c(cc1C2=O)CCC3 (centres undefined) | > 100 µM (inactive)
O=C(c1ccco1)N(C(=S)OCCOc1ccccc1)c1ccccc1 | 18.2 µM (inactive)
Cn1cc(C(=O)c2ccccc2)ccc1=O | > 100 µM (inactive)
COc1ccc2cc(/C=N\NC(=O)Nc3cccc4ccccc34)ccc2c1 | 33 µM (inactive)
CCCCOC(=O)NC(Nc1ccc(S(N)(=O)=O)cc1)(C(F)(F)F)C(F)(F)F | > 100 µM (inactive)
S=C(S)NCCN1CCNCC1 | > 100 µM (inactive)
CN(C(=O)c1ccccc1)C1CCCC(=O)CC1 (centres undefined) | > 100 µM (inactive)
CC(C)[Si](OC12CCC(CC1O)CC2C(=O)O)(C(C)C)C(C)C (centres undefined) | 11.2 µM (inactive)
CN1CCc2c(sc3nc(S)nc(S)c23)C1 | > 100 µM (inactive)
CN(C)Cc1cc(C(=O)/C=C/c2cccc(Cl)c2)cc(CN(C)C)c1O | 4.16 µM (inactive)
CCCCCCCCCC/C=C/C=O | > 100 µM (inactive)
COC(=O)c1onc(-c2c(OC)cc(OC)cc2OC)c1C(=O)OC | > 100 µM (inactive)
O=C1CC2C(=O)N(Cc3ccccc3)C1C=C2S(=O)(=O)c1ccccc1 (centres undefined) | > 100 µM (inactive)
CC(C)(C)C1(O)Cc2ccccc2C(=O)O1 (centres undefined) | > 100 µM (inactive)
